- assay_system: hA2BAR (Homo sapiens, UniProt P29275)
- Construct: host or cells: HEK-293 (HEK-293-A2B) cell membranes
- Sequence (P29275 whole entry): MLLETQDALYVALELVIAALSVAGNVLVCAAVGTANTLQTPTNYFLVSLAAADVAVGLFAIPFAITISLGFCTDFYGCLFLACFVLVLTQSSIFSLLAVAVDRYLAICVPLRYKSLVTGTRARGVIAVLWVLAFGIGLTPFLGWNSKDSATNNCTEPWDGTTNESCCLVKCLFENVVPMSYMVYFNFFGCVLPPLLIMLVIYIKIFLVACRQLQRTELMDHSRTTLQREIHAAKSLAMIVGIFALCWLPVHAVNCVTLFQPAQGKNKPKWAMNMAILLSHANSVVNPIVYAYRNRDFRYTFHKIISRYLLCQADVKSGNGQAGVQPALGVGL
- experiment: Radioligand binding competition, [3H]DPCPX, membranes from HEK-293-A2B cells
- details: read-out: Ki hA2B
Overview of reported Ki across a group of compounds:

These recorded examples may help you get a feel for the data.
compound	obs_value
CCOC(=O)C1=C(C)Nc2nc3cc(F)ccc3n2C1c1ccco1 (stereo not drawn) [16a]	< 10 nM
CC1=C(C(=O)OC(C)C)C(c2ccco2)n2c(nc3cc(F)ccc32)N1 (stereo not drawn) [16b]	< 10 nM
CC1=C(C(=O)OC(C)C)C(c2ccco2)n2c(nc3cc(Br)ccc32)N1 (stereo not drawn) [16r]	< 10 nM
CC1=C(C(=O)OC(C)C)C(c2ccco2)n2c(nc3ccc(Br)cc32)N1 (stereo not drawn) [15r]	~45 nM
CCOC(=O)C1=C(C)Nc2nc3cc(Br)ccc3n2C1c1ccoc1 (stereo not drawn) [16s]	< 10 nM
CCOC(=O)C1=C(C)Nc2nc3ccc(Br)cc3n2C1c1ccoc1 (stereo not drawn) [15s]	~45 nM
CC1=C(C(=O)OC(C)C)C(c2ccoc2)n2c(nc3cc(F)ccc32)N1 (stereo not drawn) [16d]	< 10 nM
CCOC(=O)C1=C(C)Nc2nc3ccc(Cl)cc3n2C1c1ccoc1 (stereo not drawn) [15k]	~45 nM

Need Ki of CCOC(=O)C1=C(C)Nc2nc3cc(Cl)ccc3n2C1c1cocn1 (stereo not drawn) [18c] , thanks.
< 10 nM

CC1=C(C(=O)OC(C)C)C(c2cocn2)n2c(nc3ccc(F)cc32)N1 (stereo not drawn) [17b] ?
< 10 nM

And CCOC(=O)C1=C(C)Nc2nc3cc(Cl)ccc3n2C1c1ccoc1 (stereo not drawn) [16k] ?
< 10 nM

Okay, and CCOC(=O)C1=C(C)Nc2nc3cc(Cl)ccc3n2C1c1ccco1 (stereo not drawn) [16i] ?
< 10 nM

###

- assay_system: hA3AR (Homo sapiens, UniProt P0DMS8)
- Construct: expressed in transfected cells; host or cells: HeLa (HeLa-A3) cell membranes
- Sequence (P0DMS8 whole entry): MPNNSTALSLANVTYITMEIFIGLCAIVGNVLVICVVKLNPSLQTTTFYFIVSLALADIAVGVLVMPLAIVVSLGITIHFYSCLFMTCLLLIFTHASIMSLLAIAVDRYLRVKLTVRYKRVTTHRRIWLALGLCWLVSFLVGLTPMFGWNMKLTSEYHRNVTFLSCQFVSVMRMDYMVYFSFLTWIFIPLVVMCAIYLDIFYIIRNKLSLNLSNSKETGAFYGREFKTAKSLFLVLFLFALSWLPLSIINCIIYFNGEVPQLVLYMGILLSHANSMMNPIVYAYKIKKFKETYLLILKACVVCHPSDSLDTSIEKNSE
- experiment: Radioligand binding competition, [3H]NECA, membranes from HeLa-A3 cells
- details: 1 μM, [3H]NECA, human HeLa cells, n = 2
Overview of recorded % at 1 μM hA3 (percentage displacement of specific binding) for various molecules
All answers are understood in %, so give the number only.

Requested field: % at 1 μM hA3 (percentage displacement of specific binding). Item: CCOC(=O)C1=C(C)Nc2nc3cc(Cl)ccc3n2C1c1cocn1 (centres unmarked) [18c]
15

Now the molecule CC1=C(C(=O)OC(C)C)C(c2ccoc2)n2c(nc3ccc(Br)cc32)N1 (centres unmarked) [15t]
12

Cool, now CCOC(=O)C1=C(C)Nc2nc3cc(Br)c(Br)cc3n2C1c1cccs1 (centres unmarked) [14u]
5

// same read-out, input: CC1=C(C(=O)OC(C)C)C(c2ccoc2)n2c(nc3cc(Br)ccc32)N1 (centres unmarked) [16t]
2

###

- assay_system: hA2AAR (Homo sapiens, UniProt P29274)
- Construct: expressed in transfected cells; host or cells: HeLa (HeLa-A2A) cell membranes
- Sequence (P29274 whole entry): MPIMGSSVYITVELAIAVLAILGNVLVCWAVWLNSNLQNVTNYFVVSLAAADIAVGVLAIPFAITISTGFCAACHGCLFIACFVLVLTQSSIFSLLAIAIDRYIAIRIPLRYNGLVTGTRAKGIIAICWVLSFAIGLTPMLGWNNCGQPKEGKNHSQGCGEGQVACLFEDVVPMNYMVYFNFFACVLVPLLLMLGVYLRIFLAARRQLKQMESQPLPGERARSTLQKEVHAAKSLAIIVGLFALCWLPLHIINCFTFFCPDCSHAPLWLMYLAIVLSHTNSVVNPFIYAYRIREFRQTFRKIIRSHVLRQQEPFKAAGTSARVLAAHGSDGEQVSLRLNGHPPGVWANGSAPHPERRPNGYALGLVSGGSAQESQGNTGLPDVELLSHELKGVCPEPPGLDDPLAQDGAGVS
- experiment: Radioligand binding competition, [3H]ZM241385, membranes from HeLa-A2A cells
- details: 1 μM, [3H]ZM241385, human HeLa cells, n = 2
Reported % at 1 μM hA2A (percentage displacement of specific binding) values for a set of compounds
Numeric answer only, unit % assumed.

// below: answered compounds
compound	obs_value
CC1=C(C(=O)OC(C)C)C(c2cccs2)n2c(nc3cc(Br)c(Br)cc32)N1 (stereo not drawn) [14v]	1
CCOC(=O)C1=C(C)Nc2nc3cc(Br)ccc3n2C1c1ccco1 (stereo not drawn) [16q]	29
CC1=C(C(=O)OC(C)C)C(c2cocn2)n2c(nc3ccc(Cl)cc32)N1 (stereo not drawn) [17d]	1
CC1=C(C(=O)OC(C)C)C(c2cccs2)n2c(nc3cc(Cl)c(Cl)cc32)N1 (stereo not drawn) [14n]	4
CCOC(=O)C1=C(C)Nc2nc3ccc(Br)cc3n2C1c1cccs1 (stereo not drawn) [15u]	5

Quick one: % at 1 μM hA2A (percentage displacement of specific binding) of CCOC(=O)C1=C(C)Nc2nc3cc(F)c(F)cc3n2C1c1ccco1 (stereo not drawn) [14a] ?
2

What about this compound? CCOC(=O)C1=C(C)Nc2nc3ccc(Br)cc3n2C1c1ccsc1 (stereo not drawn) [15w]
3

And the next one, CCOC(=O)C1=C(C)Nc2nc3cc(Cl)ccc3n2[C@@H]1c1cocn1 [(S)-18c] ?
17

// same read-out, input: CCOC(=O)C1=C(C)Nc2nc3ccc(Br)cc3n2C1c1ccco1 (stereo not drawn) [15q]
21

Would you kindly repeat that for CC1=C(C(=O)OC(C)C)C(c2ccco2)n2c(nc3cc(Cl)c(Cl)cc32)N1 (stereo not drawn) [14j] ?
12
